# PROTOCOL NOTES: activity coefficient (dimensionless); of the first substance listed, at infinite dilution; xn = mol fraction of the nth substance listed
# SETTINGS: 328.15 K; 101 kPa; Liquid; Chromatography; x1 = 0
activity coefficient reference

Give the value of activity coefficient reported for the following: C=COC(C)=O [vinyl acetate] + C[N+]1(CCCO)CCOCC1.O=S(=O)([N-]S(=O)(=O)C(F)(F)F)C(F)(F)F
1.91

Give the value of activity coefficient reported for the following: CCCC=O [butanal] + C[N+]1(CCCO)CCOCC1.O=S(=O)([N-]S(=O)(=O)C(F)(F)F)C(F)(F)F
1.4

State its activity coefficient: C1CCCC1 [cyclopentane] + C[N+]1(CCCO)CCOCC1.O=S(=O)([N-]S(=O)(=O)C(F)(F)F)C(F)(F)F
34.7

Give the value of activity coefficient reported for the following: c1ccccc1 [benzene] + C[N+]1(CCCO)CCOCC1.O=S(=O)([N-]S(=O)(=O)C(F)(F)F)C(F)(F)F
2.56

###

Measured activity coefficient, listed per entry.
# PROTOCOL NOTES: activity coefficient (dimensionless); of the first substance listed, at infinite dilution; xn = mol fraction of the nth substance listed
# SETTINGS: 338.15 K; 101 kPa; Liquid; Chromatography; x1 = 0
Reply: number alone, nothing else.

Would you please look over these solved cases?
> print(dat)
                                   compound  reported.result
1  CCOC(C)=O [ethyl acetate] + C[N+]1(CCCO)CCOCC1.O=S(=O)([N-]S(=O)(=O)C(F)(F)F)C(F)(F)F             1.61
2  CC(C)CC(C)(C)C [2,2,4-trimethylpentane] + C[N+]1(CCCO)CCOCC1.O=S(=O)([N-]S(=O)(=O)C(F)(F)F)C(F)(F)F              191
3  Cc1cccc(C)c1 [1,3-dimethylbenzene] + C[N+]1(CCCO)CCOCC1.O=S(=O)([N-]S(=O)(=O)C(F)(F)F)C(F)(F)F             6.64
4  COC(C)(C)C [2-methoxy-2-methylpropane] + C[N+]1(CCCO)CCOCC1.O=S(=O)([N-]S(=O)(=O)C(F)(F)F)C(F)(F)F             5.22
5  CCO [ethanol] + C[N+]1(CCCO)CCOCC1.O=S(=O)([N-]S(=O)(=O)C(F)(F)F)C(F)(F)F             1.34
6  Cc1ccc(C)cc1 [1,4-dimethylbenzene] + C[N+]1(CCCO)CCOCC1.O=S(=O)([N-]S(=O)(=O)C(F)(F)F)C(F)(F)F             6.74

Tell me its activity coefficient given CC(C)CO [2-methyl-1-propanol] + C[N+]1(CCCO)CCOCC1.O=S(=O)([N-]S(=O)(=O)C(F)(F)F)C(F)(F)F as the entry.
2.94

###

# PROTOCOL NOTES: activity coefficient (dimensionless); of the first substance listed, at infinite dilution; xn = mol fraction of the nth substance listed
# SETTINGS: 328.15 K; 101 kPa; Liquid; Chromatography; x1 = 0
Quick reference: activity coefficient of the listed items.
// no unit, no text: just the number

Report activity coefficient for C=CCCCC [hex-1-ene] + C[N+]1(CCCO)CCOCC1.O=S(=O)([N-]S(=O)(=O)C(F)(F)F)C(F)(F)F
51.7

Return reported activity coefficient. Input compound: CCCCO [butan-1-ol] + C[N+]1(CCCO)CCOCC1.O=S(=O)([N-]S(=O)(=O)C(F)(F)F)C(F)(F)F
3.07

// Input: CO [methanol] + C[N+]1(CCCO)CCOCC1.O=S(=O)([N-]S(=O)(=O)C(F)(F)F)C(F)(F)F . Output its activity coefficient only.
0.929

Supply measured activity coefficient of CCO [ethanol] + C[N+]1(CCCO)CCOCC1.O=S(=O)([N-]S(=O)(=O)C(F)(F)F)C(F)(F)F in your reply.
1.37

Output activity coefficient of C1=CCCCC1 [cyclohexene] + C[N+]1(CCCO)CCOCC1.O=S(=O)([N-]S(=O)(=O)C(F)(F)F)C(F)(F)F
21.6

Please look at this compound and report its activity coefficient: Cc1ccc(C)cc1 [1,4-dimethylbenzene] + C[N+]1(CCCO)CCOCC1.O=S(=O)([N-]S(=O)(=O)C(F)(F)F)C(F)(F)F
6.7

# return recorded activity coefficient for entry C=C(C)c1ccccc1 [(1-methylethenyl)benzene] + C[N+]1(CCCO)CCOCC1.O=S(=O)([N-]S(=O)(=O)C(F)(F)F)C(F)(F)F
6.12

Indicate the recorded activity coefficient value for this compound: C=CCCC [1-pentene] + C[N+]1(CCCO)CCOCC1.O=S(=O)([N-]S(=O)(=O)C(F)(F)F)C(F)(F)F
30.6

Please look at this compound and report its activity coefficient: C=CCCCCCC [oct-1-ene] + C[N+]1(CCCO)CCOCC1.O=S(=O)([N-]S(=O)(=O)C(F)(F)F)C(F)(F)F
117
